Some binders, each annotated with its measured 100 nM FACS (MFI Ratio).
target: neuropilin-1 (NRP1) on HEK293 cells overexpressing NRP1 (UniProt O14786); assay: flow cytometry, HEK293-NRP1 vs HEK293
Response field accepts a number only; no unit should be typed.

Known results for binders:
| binder | 100 nM FACS (MFI Ratio) |
| --- | --- |
| NRP1-84 (VHH) VHH: EVQLVESGGGLVQPGGSLRLSCAASGRTFSNYKMGWFRQAPGKEREFVARIFTDDGDSYYADSVKGRFTISADNSKNTAYLQMNSLKPEDTAVYYCAKWDGLGTLWGQGTLVTVSS | 1.7 |
| NRP1-105 (VHH) VHH: EVQLVESGGGLVQPGGSLRLSCAASGTTFRINVMGWFRQAPGKERELVAAMRWSSSSTDYADSVKGRFTISADNSKNTAYLQMNSLKPEDTAVYYCAASIEGVSGRWGQGTLVTVSS | 1.8 |
| NRP1-277 (antibody, IgG2, V domains shown) VH: EVQLLESGGGLVQPGGSLRLSCAASGFRFSTYAMSWVRQAPGKGLEWVSTVSGSGAYTYYADSVKGRFTISRDNSKNTLYLQMNSLRAEDTAVYYCADIAVAGTWGQGTLVTVSS VL: DIQMTQSPSSLSASVGDRVTITCRASQRISDYLNWYQQKPGKAPKLLIYAASTLQSGVPSRFSGSGSGTDFTLTISSLQPEDFATYYCQQSFSTPITFGGGTKVEIK | 1.5 |

Endpoint output: 100 nM FACS (MFI Ratio) of NRP1-253 (antibody, IgG2, V domains shown) VH: EVQLLESGGGLVQPGGSLRLSCAASGFTFSNHAMSWVRQAPGKGLEWVSTISGSGGSTYYVDSVKGRFTISRDNSKNTLYLQMNSLRAEDTAVYYCARGGPAPLFDYWGQGTLVTVSS VL: DIQMTQSPSSLSASVGDRVTITCRSSQSISSYLNWYQQKPGKAPKLLIYAASNFQSGVPSRFSGSGSGTDFTLTISSLQPEDFATYYCQQTYSIPLTFGGGTKVEIK . Value?
1.5

Endpoint output: 100 nM FACS (MFI Ratio) of NRP1-53 (VHH) VHH: EVQLVESGGGLVQPGGSLRLSCAASGRTFNRYPMGWFRQAPGKEREWVAAITPQGVPNYADSVKGRFTISADNSKNTAYLQMNSLKPEDTAVYYCAIHTSREIWGQGTLVTVSS . Value?
1.9

Endpoint output: 100 nM FACS (MFI Ratio) of NRP1-251 (antibody, IgG2, V domains shown) VH: EVQLLESGGGLVQPGGSLRLSCAASGSTFSSHAMSWVRQAPGKGLEWVSGISASGGSTHYADSVKGRFTISRDNSKNTLYLQMNSLRAEDTAVYYCARLKRGGTNLVRKATRYQFYGMDAWGQGTLVTVSS VL: DIQMTQSPSSLSASVGDRVTITCRASQSVSSHLNWYQQKPGKAPKLLIYDASSLQSGVPSRFSGSGSGTDFTLTISSLQPEDFATYYCQQSYKTPVTFGGGTKVEIK . Value?
1.5
